- Test system: FM-MEL-6
- test-protocol: drug sensitivity score (DSS) (DSS (unitless, 0-50 scale)); higher = more sensitive (stronger viability inhibition); extreme values may be limits of the assay
- assay-conditions: 72 h; culture: 2D
parameter: drug sensitivity score
Give only the figure.

Examples from the recorded data:
{"columns": ["compound", "target-or-test-system", "drug sensitivity score"],
 "data": [
  ["O=C(/C=C\\n1cnc(-c2cc(C(F)(F)F)cc(C(F)(F)F)c2)n1)NNc1ccccn1 [Verdinexor]", "FM-MEL-6", 4],
  ["Cc1ccc(C(=O)Nc2ccc(Oc3cc4cnn(C)c4cc3-c3cn[nH]c3)c(F)c2)c(=O)n1-c1ccc(F)cc1 [Merestinib]", "FM-MEL-6", 0],
  ["Cn1cc(C[C@@H](N)C(=O)O)c2ccccc21 [1-methyl-D-tryptophan]", "FM-MEL-6", 0.6]
]}

# next compound below
drug sensitivity score value, target or system FM-MEL-6, for C=CCc1cccc(/C=N/NC(=O)CN2CCN(Cc3ccccc3)CC2)c1O [PAC-1] : 0
